Target: Adenosine receptor A2b (Homo sapiens) (UniProt P29275)
Assay: Agonist activity human adenosine A2B receptor expressed in CHO cells assessed as stimulation of adenylate cyclase relative to NECA
Type: functional, cell-based

- query.smiles: "CCNC(=O)[C@H]1O[C@@H](n2cnc3c(Nc4ccc(OCC(=O)Nc5ccc(OC)cc5)cc4)ncnc32)[C@H](O)[C@@H]1O"
  Activity: 0.68
- query.smiles: "Nc1nc(OCCc2c[nH]c3ccc(O)cc23)nc2c1ncn2[C@@H]1O[C@H](CO)[C@@H](O)[C@H]1O"
  Activity: -0.806
- query.smiles: "CCNC(=O)[C@H]1O[C@@H](n2cnc3c(NNC(=O)c4cccs4)nc(Cl)nc32)[C@H](O)[C@@H]1O"
  Activity: -0.097
- query.smiles: "CCNc1nc(OCCc2c[nH]c3ccccc23)nc2c1ncn2[C@@H]1O[C@H](CO)[C@@H](O)[C@H]1O"
  Activity: -1.37

###

Target: Adenosine receptor A2b (Homo sapiens) (UniProt P29275)
Sequence (whole entry): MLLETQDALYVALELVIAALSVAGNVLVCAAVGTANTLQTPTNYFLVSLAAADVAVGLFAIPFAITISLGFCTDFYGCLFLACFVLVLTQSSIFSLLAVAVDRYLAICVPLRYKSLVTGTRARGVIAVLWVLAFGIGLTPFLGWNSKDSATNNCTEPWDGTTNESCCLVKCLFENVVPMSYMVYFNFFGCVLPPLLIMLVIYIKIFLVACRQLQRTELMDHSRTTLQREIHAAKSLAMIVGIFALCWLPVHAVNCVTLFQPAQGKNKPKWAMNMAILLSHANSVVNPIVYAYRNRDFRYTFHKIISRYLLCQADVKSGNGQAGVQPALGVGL
Assay: Agonist activity human adenosine A2B receptor expressed in CHO cells assessed as stimulation of adenylate cyclase relative to NECA
Format: functional, cell-based
Below is a list of entries, each paired with its recorded Activity value.

- query.smiles: "Nc1nc(OCCc2c[nH]c3cc(Br)ccc23)nc2c1ncn2[C@@H]1O[C@H](CO)[C@@H](O)[C@H]1O"
  Activity: 0.0389
- query.smiles: "CCNC(=O)[C@H]1O[C@@H](n2cnc3c(Nc4ccc(OCC(=O)Nc5ccc(N6CCOCC6)cc5)cc4)ncnc32)[C@H](O)[C@@H]1O"
  Activity: 0.287
- query.smiles: "NNc1nc(OCCc2c[nH]c3cc(Br)ccc23)nc2c1ncn2[C@@H]1O[C@H](CO)[C@@H](O)[C@H]1O"
  Activity: -0.0944
- query.smiles: "O=C(COc1ccc(Nc2nc(OCCc3c[nH]c4cc(Br)ccc34)nc3c2ncn3[C@@H]2O[C@H](CO)[C@@H](O)[C@H]2O)cc1)N1CCCC1"
  Activity: -0.838
- query.smiles: "Nc1nc(OCCc2c[nH]c3ccc(I)cc23)nc2c1ncn2[C@@H]1O[C@H](CO)[C@@H](O)[C@H]1O"
  Activity: -1.13
- query.smiles: "CCNC(=O)[C@H]1O[C@@H](n2cnc3c(NNC(=O)c4ccco4)nc(Cl)nc32)[C@H](O)[C@@H]1O"
  Activity: -0.118
- query.smiles: "CCNC(=O)[C@H]1O[C@@H](n2cnc3c(NNC(=O)c4ccc[nH]4)nc(Cl)nc32)[C@H](O)[C@@H]1O"
  Activity: -0.351

###

Target: Adenosine receptor A2b (Homo sapiens) (UniProt P29275)
Test: Agonist activity human adenosine A2B receptor expressed in CHO cells assessed as stimulation of adenylate cyclase relative to NECA
Type: functional, cell-based

- query.smiles: "CCNC(=O)[C@H]1O[C@@H](n2cnc3c(Nc4ccc(OCC(=O)Nc5ccc6c(c5)OCO6)cc4)ncnc32)[C@H](O)[C@@H]1O"
  tested.on: "Adenosine receptor A2b (Homo sapiens) (UniProt P29275)"
  Activity: 0.64
- query.smiles: "CCNC(=O)[C@H]1O[C@@H](n2cnc3c(NNC(=O)c4ccc(C)[nH]4)nc(Cl)nc32)[C@H](O)[C@@H]1O"
  tested.on: "Adenosine receptor A2b (Homo sapiens) (UniProt P29275)"
  Activity: -0.039
- query.smiles: "CCNC(=O)[C@H]1O[C@@H](n2cnc3c(NNC(=O)c4ccc(C)o4)ncnc32)[C@H](O)[C@@H]1O"
  tested.on: "Adenosine receptor A2b (Homo sapiens) (UniProt P29275)"
  Activity: -0.152
- query.smiles: "Nc1nc(OCCc2cccs2)nc2c1ncn2[C@@H]1O[C@H](CO)[C@@H](O)[C@H]1O"
  tested.on: "Adenosine receptor A2b (Homo sapiens) (UniProt P29275)"
  Activity: -1.1
- query.smiles: "CCNC(=O)[C@H]1O[C@@H](n2cnc3c(N)nc(C#C[C@@H](O)c4ccccc4)nc32)[C@H](O)[C@@H]1O"
  tested.on: "Adenosine receptor A2b (Homo sapiens) (UniProt P29275)"
  Activity: 1.04
- query.smiles: "CNc1nc(C#C[C@@H](O)c2ccccc2)nc2c1ncn2[C@@H]1O[C@H](CO)[C@@H](O)[C@H]1O"
  tested.on: "Adenosine receptor A2b (Homo sapiens) (UniProt P29275)"
  Activity: -0.035
- query.smiles: "CCNC(=O)[C@H]1O[C@@H](n2cnc3c(NNC(=O)Cc4cccs4)nc(Cl)nc32)[C@H](O)[C@@H]1O"
  tested.on: "Adenosine receptor A2b (Homo sapiens) (UniProt P29275)"
  Activity: -0.576
- query.smiles: "CCNc1nc(C#C[C@H](O)c2ccccc2)nc2c1ncn2[C@@H]1O[C@H](CO)[C@@H](O)[C@H]1O"
  tested.on: "Adenosine receptor A2b (Homo sapiens) (UniProt P29275)"
  Activity: -0.579
